Entries and their Tm values follow.
# run.description: melting temperature; melt of duplexes
# test.parameters: sodium 0.0675 M; strand 1 µM
A number alone suffices; assume °C.

CGACGTGCGTGATGTGCTG+CAGCACATCTTGCACGTCG ((((((((..(((((((((+)))))))))..)))))))) ... 55.6

Retrieve Tm measured for CGACGTGCGCAATGTGCTG+CAGCACATAGAGCACGTCG ((((((((.(.((((((((+)))))))).).)))))))) and print it.
54.7

Retrieve Tm measured for CGACGTGCTATATGTGCTG+CAGCACATACCGCACGTCG ((((((((..(((((((((+)))))))))..)))))))) and print it.
49.3

###

# run.description: melting temperature; UV melt of duplexes
# test.parameters: sodium 0.12 M; strand 2 µM
Entries and their Tm values follow.
A number alone suffices; assume °C.

Known results for substances:
GCCAACTCCGTCGCCGTTCGTGCGC+GCGCACGAACGGCGACGGAGTTGGC (((((((((((((((((((((((((+))))))))))))))))))))))))) ... 76.5
AACCTGCAACATGGAGTTTTTGTCTCATGC+GCATGAGACAAAAACTCCATGTTGCAGGTT ((((((((((((((((((((((((((((((+)))))))))))))))))))))))))))))) ... 68.3
ACGGGTCCCCGCACCGCACCGCCAG+CTGGCGGTGCGGTGCGGGGACCCGT (((((((((((((((((((((((((+))))))))))))))))))))))))) ... 79.9

Retrieve Tm measured for ACAGCGAATGGACCTACGTGGCCTT+AAGGCCACGTAGGTCCATTCGCTGT (((((((((((((((((((((((((+))))))))))))))))))))))))) and print it.
72.1

Retrieve Tm measured for ATTGATATCCTTTTCTATTCATCTTTCATT+AATGAAAGATGAATAGAAAAGGATATCAAT ((((((((((((((((((((((((((((((+)))))))))))))))))))))))))))))) and print it.
58.3

Retrieve Tm measured for AAGGCGAGTCAGGCTCAGTG+CACTGAGCCTGACTCGCCTT ((((((((((((((((((((+)))))))))))))))))))) and print it.
67.7

###

# run.description: melting temperature; melt of duplexes
# test.parameters: sodium 0.0675 M; strand 1 µM
endpoint.name: Tm (°C)
A number alone suffices; assume °C.

Known results for substances:
CGACGTGCGGGATGTGCTG+CAGCACATATCGCACGTCG (((((((((..((((((((+))))))))..))))))))) ... 56.7
CGACGTGCAAAATGTGCTG+CAGCACATGCGGCACGTCG ((((((((...((((((((+))))))))...)))))))) ... 51.2
CGACGTGCTTCATGTGCTG+CAGCACATCAAGCACGTCG ((((((((((.((((((((+)))))))).)))))))))) ... 53.3
CGACGTGCATCATGTGCTG+CAGCACATCGGGCACGTCG ((((((((...((((((((+))))))))...)))))))) ... 47.9
CGACGTGCCGAATGTGCTG+CAGCACATCACGCACGTCG ((((((((...((((((((+))))))))...)))))))) ... 48.9

Retrieve Tm measured for CGACGTGCACCATGTGCTG+CAGCACATTGAGCACGTCG ((((((((.(.((((((((+)))))))).).)))))))) and print it.
47.2

Retrieve Tm measured for CGACGTGCTGCATGTGCTG+CAGCACATCTCGCACGTCG ((((((((...((((((((+))))))))...)))))))) and print it.
49.2

Retrieve Tm measured for CGACGTGCCAAATGTGCTG+CAGCACATTTCGCACGTCG ((((((((.((((((((((+)))))))))).)))))))) and print it.
54.1

Retrieve Tm measured for CGACGTGCACTATGTGCTG+CAGCACATGCAGCACGTCG ((((((((...((((((((+))))))))...)))))))) and print it.
45.3

Retrieve Tm measured for CGACGTGCGTCATGTGCTG+CAGCACATCCGGCACGTCG ((((((((...((((((((+))))))))...)))))))) and print it.
48.7

Retrieve Tm measured for CGACGTGCTCCATGTGCTG+CAGCACATATAGCACGTCG (((((((((..((((((((+))))))))..))))))))) and print it.
50.4

Retrieve Tm measured for CGACGTGCCCCATGTGCTG+CAGCACATCCAGCACGTCG ((((((((...((((((((+))))))))...)))))))) and print it.
47.4

Retrieve Tm measured for CGACGTGCCAGATGTGCTG+CAGCACATGGCGCACGTCG ((((((((...((((((((+))))))))...)))))))) and print it.
50.4

Retrieve Tm measured for CGACGTGCCGTATGTGCTG+CAGCACATCTGGCACGTCG (((((((((..((((((((+))))))))..))))))))) and print it.
55.3

Retrieve Tm measured for CGACGTGCCTGATGTGCTG+CAGCACATTGAGCACGTCG ((((((((...((((((((+))))))))...)))))))) and print it.
51

###

# run.description: melting temperature; melt of duplexes
# test.parameters: sodium 0.0675 M; strand 1 µM
Entries and their Tm values follow.

CGACGTGCTGGATGTGCTG+CAGCACATACTGCACGTCG ((((((((.(.((((((((+)))))))).).)))))))) ... 56.3 °C

Retrieve Tm measured for CGACGTGCCTCATGTGCTG+CAGCACATCGCGCACGTCG ((((((((...((((((((+))))))))...)))))))) and print it.
46.6 °C

Retrieve Tm measured for CGACGTGCCTTATGTGCTG+CAGCACATCGCGCACGTCG ((((((((...((((((((+))))))))...)))))))) and print it.
47.2 °C

Retrieve Tm measured for CGACGTGCGAGATGTGCTG+CAGCACATCCGGCACGTCG ((((((((..(((((((((+)))))))))..)))))))) and print it.
55.7 °C

Retrieve Tm measured for CGACGTGCCCAATGTGCTG+CAGCACATGTCGCACGTCG ((((((((...((((((((+))))))))...)))))))) and print it.
49.5 °C

Retrieve Tm measured for CGACGTGCGGTATGTGCTG+CAGCACATGCCGCACGTCG ((((((((((.((((((((+)))))))).)))))))))) and print it.
63.4 °C

Retrieve Tm measured for CGACGTGCAGTATGTGCTG+CAGCACATTGCGCACGTCG ((((((((...((((((((+))))))))...)))))))) and print it.
49.3 °C

Retrieve Tm measured for CGACGTGCCTAATGTGCTG+CAGCACATAGGGCACGTCG (((((((((..((((((((+))))))))..))))))))) and print it.
55.4 °C

###

# run.description: melting temperature; melt of duplexes
# test.parameters: sodium 0.0675 M; strand 1 µM
Binarize Tm at 50 °C; below is TRUE, at or above is FALSE.

Please review the following examples before continuing.
CGACGTGCCCGATGTGCTG+CAGCACATCACGCACGTCG ((((((((..(((((((((+)))))))))..)))))))) ... FALSE
CGACGTGCCCCATGTGCTG+CAGCACATCAGGCACGTCG (((((((((..((((((((+))))))))..))))))))) ... FALSE
CGACGTGCATCATGTGCTG+CAGCACATTGCGCACGTCG ((((((((...((((((((+))))))))...)))))))) ... TRUE
CGACGTGCGCCATGTGCTG+CAGCACATCTGGCACGTCG ((((((((...((((((((+))))))))...)))))))) ... TRUE
CGACGTGCACAATGTGCTG+CAGCACATACCGCACGTCG ((((((((...((((((((+))))))))...)))))))) ... TRUE

Continue with the next substance.
# TODO verify Tm < 50 °C strictly for this substance: CGACGTGCGGTATGTGCTG+CAGCACATTTAGCACGTCG ((((((((...((((((((+))))))))...))))))))
FALSE

###

# run.description: melting temperature; melt of duplexes
# test.parameters: sodium 0.0675 M; strand 1 µM
Entries and their Tm values follow.
A number alone suffices; assume °C.

Known results for substances:
CGACGTGCCGCATGTGCTG+CAGCACATCAGGCACGTCG (((((((((..((((((((+))))))))..))))))))) ... 55.5
CGACGTGCGGGATGTGCTG+CAGCACATCAAGCACGTCG ((((((((..(((((((((+)))))))))..)))))))) ... 57.6
CGACGTGCATCATGTGCTG+CAGCACATCTGGCACGTCG ((((((((...((((((((+))))))))...)))))))) ... 47.5

Consider now this further substance.
Retrieve Tm measured for CGACGTGCCCGATGTGCTG+CAGCACATACGGCACGTCG (((((((((..((((((((+))))))))..))))))))) and print it.
53.5

The measurements presented in this section are drawn from the array DNA melting data of Ke et al..
